PROTOCOL: Toxicity against rat L6 cells after 72 hrs by Alamar blue assay
Assay type: cell-based
So I've got a bunch of compounds here, and I need their IC50 at 72 h values.
Respond numerically; units are nM and should not be typed.

Provide IC50 at 72 h value for the following compound: Cn1c2nc3ccccc3c-2c(NCCCN2C(=O)CCSC2c2ccc(Cl)cc2)c2ccccc21 (stereo not drawn) 3360

Provide IC50 at 72 h value for the following compound: Cn1c2nc3ccccc3c-2c(NCCCN2C(=O)CSC2c2ccc(Cl)cc2)c2ccccc21 (stereo not drawn) 3470

Provide IC50 at 72 h value for the following compound: Cn1c2nc3ccccc3c-2c(NCCCN2C(=O)CCSC2c2ccc(F)cc2)c2ccccc21 (stereo not drawn) 2730

Provide IC50 at 72 h value for the following compound: `Cn1c2nc3ccccc3c-2c(NCCCNS(=O)(=O)c2ccc3ccccc3c2)c2ccccc21` 18.2

Provide IC50 at 72 h value for the following compound: `Cn1c2nc3ccccc3c-2c(NCCCNC(=O)Nc2ccccc2)c2cc(C(F)(F)F)ccc21` 1280

Provide IC50 at 72 h value for the following compound: CN(C)c1ccc(C2SCC(=O)N2CCCNc2c3c4ccccc4nc-3n(C)c3ccccc23)cc1 (stereo not drawn) 3550

Provide IC50 at 72 h value for the following compound: `Cn1c2nc3ccccc3c-2c(NCCCNC(=O)Nc2ccccc2)c2cc(Br)ccc21` 2830

Provide IC50 at 72 h value for the following compound: `Cn1c2nc3ccccc3c-2c(NCCCNS(=O)(=O)c2ccccc2)c2ccccc21` 65.2

Taken from ChEMBL document CHEMBL2321781.
